Taken from paper PMC6237161.

# Tgt: BChE from equine serum (eqBChE) (Equus caballus, UniProt P81908)
# Construct: butyrylcholinesterase (eqBChE, from equine serum); purchased Sigma-Aldrich; host or cells: equine serum
# Sequence (P81908 whole entry): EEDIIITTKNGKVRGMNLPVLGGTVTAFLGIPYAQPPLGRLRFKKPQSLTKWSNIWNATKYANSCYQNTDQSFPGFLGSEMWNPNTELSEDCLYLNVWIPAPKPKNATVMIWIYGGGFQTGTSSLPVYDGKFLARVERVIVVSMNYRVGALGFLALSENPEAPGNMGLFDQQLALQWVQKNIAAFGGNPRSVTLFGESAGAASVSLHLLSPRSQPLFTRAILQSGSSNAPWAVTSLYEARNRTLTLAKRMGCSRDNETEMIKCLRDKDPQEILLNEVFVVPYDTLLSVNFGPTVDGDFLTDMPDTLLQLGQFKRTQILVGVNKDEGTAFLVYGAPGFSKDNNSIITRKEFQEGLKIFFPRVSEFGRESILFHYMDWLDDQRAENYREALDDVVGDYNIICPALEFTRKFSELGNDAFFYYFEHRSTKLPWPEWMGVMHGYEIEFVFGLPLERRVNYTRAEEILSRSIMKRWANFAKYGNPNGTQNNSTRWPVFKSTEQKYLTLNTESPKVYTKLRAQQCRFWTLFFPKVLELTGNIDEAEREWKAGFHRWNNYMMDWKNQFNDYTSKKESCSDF
# Test Protocol: biochemical
# Experimental Parameters: BChE from equine serum, mean ± SD, n=3; read-out: IC50 (μM) BChE
Would you mind telling me the reported log10(IC50) of each entry?
Hi team, quick reminder: these entries are log10 of IC50 (µM).

Given the entry `O=C(/C=C/c1ccc(F)cc1)N1CCN(C(=O)c2cc(Cc3n[nH]c(=O)c4ccccc34)ccc2F)CC1` , report its measured log10(IC50).
2.02

Given the entry `O=C(/C=C/c1ccc([N+](=O)[O-])cc1)N1CCN(C(=O)c2cc(Cc3n[nH]c(=O)c4ccccc34)ccc2F)CC1` , report its measured log10(IC50).
0.77

Given the entry `O=C(/C=C/c1ccco1)N1CCN(C(=O)c2cc(Cc3n[nH]c(=O)c4ccccc34)ccc2F)CC1` , report its measured log10(IC50).
1.89

Given the entry `COc1ccc(/C=C/C(=O)N2CCN(C(=O)c3cc(Cc4n[nH]c(=O)c5ccccc45)ccc3F)CC2)cc1OC` , report its measured log10(IC50).
1.25

Given the entry `COc1ccccc1/C=C/C(=O)N1CCN(C(=O)c2cc(Cc3n[nH]c(=O)c4ccccc34)ccc2F)CC1` , report its measured log10(IC50).
1.42

Given the entry `O=C(c1cc(Cc2n[nH]c(=O)c3ccccc23)ccc1F)N1CCN(C(=O)C2CC2)CC1` , report its measured log10(IC50).
1.54

Given the entry `O=C(/C=C/c1cccc([N+](=O)[O-])c1)N1CCN(C(=O)c2cc(Cc3n[nH]c(=O)c4ccccc34)ccc2F)CC1` , report its measured log10(IC50).
0.96

----------
Would you mind telling me the reported IC50 of each entry?
# Tgt: AChE from electric eel (EeAChE) (Electrophorus electricus)
# Construct: purchased Sigma-Aldrich
# Test Protocol: biochemical
# Experimental Parameters: AChE from electric eel, mean ± SD, n=3; read-out: IC50 (μM) AChE

Given the entry `COc1ccc(/C=C/C(=O)N2CCN(C(=O)c3cc(Cc4n[nH]c(=O)c5ccccc45)ccc3F)CC2)cc1` , report its measured IC50.
55.8 µM

Given the entry `O=C(/C=C/c1ccc(Cl)cc1)N1CCN(C(=O)c2cc(Cc3n[nH]c(=O)c4ccccc34)ccc2F)CC1` , report its measured IC50.
86.5 µM

Given the entry `O=C(/C=C/c1ccco1)N1CCN(C(=O)c2cc(Cc3n[nH]c(=O)c4ccccc34)ccc2F)CC1` , report its measured IC50.
114 µM

Given the entry `O=C(/C=C/c1ccc([N+](=O)[O-])cc1)N1CCN(C(=O)c2cc(Cc3n[nH]c(=O)c4ccccc34)ccc2F)CC1` , report its measured IC50.
12.2 µM

----------
# Tgt: AChE from electric eel (EeAChE) (Electrophorus electricus, UniProt O42275)
# Construct: purchased Sigma-Aldrich
# Sequence (O42275 24-633): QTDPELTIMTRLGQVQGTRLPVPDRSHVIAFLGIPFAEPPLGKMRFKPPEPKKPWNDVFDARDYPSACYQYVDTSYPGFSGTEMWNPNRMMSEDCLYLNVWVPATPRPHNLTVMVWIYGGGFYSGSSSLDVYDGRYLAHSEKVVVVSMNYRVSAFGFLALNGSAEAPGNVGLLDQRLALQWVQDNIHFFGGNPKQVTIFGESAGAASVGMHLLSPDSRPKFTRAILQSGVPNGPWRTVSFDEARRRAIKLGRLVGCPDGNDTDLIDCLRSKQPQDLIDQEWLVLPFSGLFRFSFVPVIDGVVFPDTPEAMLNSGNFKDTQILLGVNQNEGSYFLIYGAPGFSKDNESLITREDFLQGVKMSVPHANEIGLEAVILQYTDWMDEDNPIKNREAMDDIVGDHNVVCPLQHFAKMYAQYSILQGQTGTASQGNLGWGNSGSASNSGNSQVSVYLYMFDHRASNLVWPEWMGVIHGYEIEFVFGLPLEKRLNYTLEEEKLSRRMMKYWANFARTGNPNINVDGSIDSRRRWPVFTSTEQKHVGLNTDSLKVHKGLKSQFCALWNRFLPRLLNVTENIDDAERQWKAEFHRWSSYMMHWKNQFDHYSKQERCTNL
# Test Protocol: biochemical
Readout Name: IC50 (nM)
Reply with just the number (in nM).

Given the entry CN(C)C(=O)Oc1cccc([N+](C)(C)C)c1 [Neostigmine, reference compound] , report its measured IC50.
40

----------
# Tgt: AChE from electric eel (EeAChE) (Electrophorus electricus)
# Construct: purchased Sigma-Aldrich
# Test Protocol: biochemical
# Experimental Parameters: AChE from electric eel, mean ± SD, n=3; read-out: IC50 (μM) AChE
# Description: The test compounds were dissolved in a minimum volume of DMSO (1%) and were diluted using sodium phosphate buffer (0.1 M, pH 7.4). […] The inhibition per cent was calculated by the following expression: (1-Ai/Ac) × 100, where Ai and Ac were the absorbance obtained for AChE/BChE in the presence and absence of inhibitors, respectively. […]
Readout Name: IC50 (µM)
Reply with just the number (in µM).

Provide value of IC50 for this record tested with AChE from electric eel (EeAChE) (Electrophorus electricus): O=C(c1cc(Cc2n[nH]c(=O)c3ccccc23)ccc1F)N1CCN(C(=O)C2CC2)CC1 [Olaparib]
51

Provide value of IC50 for this record tested with AChE from electric eel (EeAChE) (Electrophorus electricus): Cc1ccc(/C=C/C(=O)N2CCN(C(=O)c3cc(Cc4n[nH]c(=O)c5ccccc45)ccc3F)CC2)cc1 [5d]
72

Provide value of IC50 for this record tested with AChE from electric eel (EeAChE) (Electrophorus electricus): COc1ccc(OC)c(/C=C/C(=O)N2CCN(C(=O)c3cc(Cc4n[nH]c(=O)c5ccccc45)ccc3F)CC2)c1 [5f]
76.9

Provide value of IC50 for this record tested with AChE from electric eel (EeAChE) (Electrophorus electricus): COc1cc(/C=C/C(=O)N2CCN(C(=O)c3cc(Cc4n[nH]c(=O)c5ccccc45)ccc3F)CC2)cc(OC)c1OC [5n]
99.1

Provide value of IC50 for this record tested with AChE from electric eel (EeAChE) (Electrophorus electricus): O=C(/C=C/c1cccc(F)c1)N1CCN(C(=O)c2cc(Cc3n[nH]c(=O)c4ccccc34)ccc2F)CC1 [5i]
110
